src = patent US20240270744A1

Measured LogSel of individual entries
Molecular target: human GABAA α2β2γ1 receptor (Homo sapiens (Human), UniProt P47869+Q8N1C3)
Assay: Radioligand binding assay, competition for [3H]RO7239181, γ1-containing GABAA subtypes
Settings: Table 1; Log of the γ2/γ1 Ki ratio
Reply briefly: the number, and no unit.

For orientation, consider the following solved cases.
C[C@H](O)CNC(=O)c1nc2n(n1)-c1cnc(C(F)(F)F)c(Cl)c1C(c1c(F)cccc1F)=N[C@H]2C: 2.28
Cc1nnc2n1-c1cnc(C3CC3)c(Cl)c1C(c1c(F)cccc1F)=N[C@H]2C: 1.36

Param readout = LogSel; param system = human GABAA α2β2γ1 receptor (Homo sapiens (Human), UniProt P47869+Q8N1C3); param query = Cc1ncc2c(c1Cl)C(c1c(F)cccc1F)=N[C@@H](C)c1nnc(C)n1-2 ; response: value 1.54

Can you look up LogSel on human GABAA α2β2γ1 receptor (Homo sapiens (Human), UniProt P47869+Q8N1C3) for C[C@@H]1N=C(c2c(F)cccc2F)c2c(cnc(C(F)(F)F)c2Cl)-n2nc(C(=O)NCC3(O)CC3)nc21 ? 2.39

Kindly state the measured LogSel obtained for C[C@@H]1N=C(c2c(F)cccc2F)c2c(cnc(C(F)(F)F)c2Cl)-n2nc(C(=O)NC[C@@H](C)O)nc21 with human GABAA α2β2γ1 receptor (Homo sapiens (Human), UniProt P47869+Q8N1C3). 2.38

---

Biological target: human GABAA α2β2γ1 receptor (Homo sapiens (Human), UniProt P47869+Q8N1C3)
Assay: Radioligand binding assay, competition for [3H]RO7239181, γ1-containing GABAA subtypes
Settings: Table 1; Log of the γ2/γ1 Ki ratio
LogSel values, listed per item
Returns: the value as a bare number; no unit string appended.

Cc1nnc2n1-c1cnc(C(F)(F)F)c(Cl)c1C(c1c(F)cccc1Cl)=N[C@H]2C: 2.33
C[C@@H]1N=C(c2c(F)cccc2F)c2c(cnc(C(F)(F)F)c2Cl)-n2nc(C(=O)N3CC(F)C3)nc21: 2.40
C[C@@H]1N=C(c2c(F)cccc2F)c2c(cnc(C(F)(F)F)c2Cl)-n2nc(C(=O)N3CCC3)nc21: 2.36

Could you tell me which LogSel is on file for C[C@@H]1N=C(c2c(F)cccc2F)c2c(cnc(C(F)(F)F)c2Cl)-n2nc(NC(=O)C3COC3)nc21 ? 2.25

---

Ki values by entry
Target: human GABAA α5β2γ1 receptor (Homo sapiens (Human), UniProt P31644+Q8N1C3)
Experiment: Radioligand binding assay, competition for [3H]RO7239181, γ1-containing GABAA subtypes
Conditions: Table 1; [3H]RO7239181 displacement, membranes from HEK293F cells, mean of two determinations
Give just the numeric value; nM need not be written.

Recorded results for 4 compounds are shown here.
C[C@@H]1N=C(c2c(F)cccc2F)c2c(cnc(C(F)(F)F)c2Cl)-n2nc(C(=O)N3CC(C)(O)C3)nc21: 3
Cc1nnc2n1-c1cnc(C(F)(F)F)c(Cl)c1C(c1c(F)cccc1Cl)=N[C@H]2C: 3.8
C[C@@H]1N=C(c2c(F)cccc2F)c2c(cnc(C(F)(F)F)c2Cl)-n2nc(NC(=O)C3COC3)nc21: 5.2
C[C@@H]1N=C(c2c(F)cccc2F)c2c(cnc(C(F)(F)F)c2Cl)-n2nc(C(=O)N3CC(F)C3)nc21: 3.5

I'd like to know its Ki. The compound in question is C[C@@H]1N=C(c2c(F)cccc2F)c2c(cnc(C(F)(F)F)c2Cl)-n2nc(C(=O)NCCO)nc21 2.6

Please look up its Ki: C[C@@H]1N=C(c2c(F)cccc2F)c2c(cnc(C(F)(F)F)c2Cl)-n2nc(C(=O)NCC(C)(C)O)nc21 10.7

Query: Ki; subject: Cc1cn2c(n1)[C@H](C)N=C(c1c(F)cccc1F)c1c-2cnc(C(F)(F)F)c1Cl 5.9

---

// reported Efficacy (GABA) % for each item listed
Biological target: h-GABA-A α2β2γ1 (Homo sapiens (Human), UniProt P47869+Q8N1C3)
Assay: Two-electrode voltage clamp electrophysiology in Xenopus oocytes expressing GABAA receptors
Format: cell-based
Details: Table 2; % modulation of GABA EC20 = 100*(Fold increase-1), compound at 30-fold Ki
Answer shape: numeric part, then the unit.

Solved entries (count: 4):
C[C@@H]1N=C(c2c(F)cccc2F)c2c(cnc(C(F)(F)F)c2Cl)-n2nc(C(=O)NCCO)nc21 [Example 15]: 146%
C[C@@H]1N=C(c2c(F)cccc2F)c2c(cnc(C(F)(F)F)c2Cl)-n2cc(C(=O)NCCO)nc21 [Example 19]: 170%
C[C@@H]1N=C(c2c(F)cccc2F)c2c(cnc(C(F)(F)F)c2Cl)-n2nc(C(=O)N3CCC3)nc21 [Example 6]: 91%
Cc1nc2n(n1)-c1cnc(C(F)(F)F)c(Cl)c1C(c1c(F)cccc1F)=N[C@H]2C [Example 5]: 84%

Consider the compound shown here: Cc1ncc2c(c1Cl)C(c1c(F)cccc1F)=N[C@@H](C)c1nnc(C)n1-2 [Example 3] What is its recorded Efficacy (GABA) %? 66%

Which value of Efficacy (GABA) % has been reported for C[C@@H]1N=C(c2c(F)cccc2F)c2c(cnc(C(F)(F)F)c2Cl)-n2nc(C(=O)NCC(C)(C)O)nc21 [Example 21] in the records? 175%

Request the reported Efficacy (GABA) % associated with C[C@@H]1N=C(c2c(F)cccc2F)c2c(cnc(C(F)(F)F)c2Cl)-n2nc(NC(=O)C3COC3)nc21 [Example 12] 143%

Efficacy (GABA) % lookup needed for C[C@@H]1N=C(c2c(F)cccc2F)c2c(cnc(C(F)(F)F)c2Cl)-n2nc(C(=O)NCC3(O)CC3)nc21 [Example 22] , thanks. 172%

GET /values?readout=Efficacy (GABA) %&item= C[C@@H]1N=C(c2c(F)cccc2F)c2c(cnc(C(F)(F)F)c2Cl)-n2nc(C(=O)NC[C@@H](C)O)nc21 [Example 16] 166%

---

Target: human GABAA α2β2γ1 receptor (Homo sapiens (Human), UniProt P47869+Q8N1C3)
Assay: Radioligand binding assay, competition for [3H]RO7239181, γ1-containing GABAA subtypes
Conditions: Table 1; [3H]RO7239181 displacement, membranes from HEK293F cells, mean of two determinations; read-out: Ki h-GABAA α2β2γ1
Measured Parameter: pKi
Please report pKi as the negative decimal logarithm of the molar concentration, giving only the number.

C[C@@H]1N=C(c2c(F)cccc2F)c2c(cnc(C(F)(F)F)c2Cl)-n2nc(C(=O)N[C@H]3C[C@@H](O)C3)nc21 [Example 23]: 6.99

Attention now shifts to the item below.
Any idea what pKi was measured for Cc1nc2n(n1)-c1cnc(C(F)(F)F)c(Cl)c1C(c1c(F)cccc1F)=N[C@H]2C [Example 5] ? 7.40

---

Target: human GABAA α2β2γ1 receptor (Homo sapiens (Human), UniProt P47869+Q8N1C3)
Test: Radioligand binding assay, competition for [3H]RO7239181, γ1-containing GABAA subtypes
Details: Table 1; Ki α1β3γ2 (nM)/Ki α2β2γ1 (nM)
γ2/γ1 Selectivity Ratio values by entry

Examples with their reported γ2/γ1 Selectivity Ratio follow.
C[C@@H]1N=C(c2c(F)cccc2F)c2c(cnc(C(F)(F)F)c2Cl)-n2nc(C(=O)N3CCC3)nc21: 227
C[C@@H]1N=C(c2c(F)cccc2F)c2c(cnc(C(F)(F)F)c2Cl)-n2nc(C(=O)NC[C@@H](C)O)nc21: 238
C[C@@H]1N=C(c2c(F)cccc2F)c2c(cnc(C(F)(F)F)c2Cl)-n2nc(C(=O)NCCO)nc21: 275
C[C@@H]1N=C(c2c(F)cccc2F)c2c(cnc(C(F)(F)F)c2Cl)-n2nc(C(=O)N[C@H]3C[C@@H](O)C3)nc21: 144
C[C@@H]1N=C(c2c(F)cccc2F)c2c(cnc(C(F)(F)F)c2Cl)-n2nc(C(=O)N3CCS(=O)(=O)CC3)nc21: 818
C[C@@H]1N=C(c2c(F)cccc2F)c2c(cnc(C(F)(F)F)c2Cl)-n2nc(NC(=O)C3COC3)nc21: 178

// fetch human GABAA α2β2γ1 receptor (Homo sapiens (Human), UniProt P47869+Q8N1C3) γ2/γ1 Selectivity Ratio for C[C@@H]1N=C(c2c(F)cccc2F)c2c(cnc(C(F)(F)F)c2Cl)-n2nc(N3CCCC3=O)nc21 166

---

Target: human GABAA α2β2γ1 receptor (Homo sapiens (Human), UniProt P47869+Q8N1C3)
Assay: Radioligand binding assay, competition for [3H]RO7239181, γ1-containing GABAA subtypes
Details: Ki h-GABAA α2β2γ1, Table 1; [3H]RO7239181 displacement, membranes from HEK293F cells, mean of two determinations
Measured Parameter: Ki (nM)
Expressed in nM, but write only the number.

Please review the entries below; each comes with its answer.
C[C@@H]1N=C(c2c(F)cccc2F)c2c(cnc(C(F)(F)F)c2Cl)-n2nc(C(=O)N3CCS(=O)(=O)CC3)nc21 [Example 11]: 9.6
C[C@@H]1N=C(c2c(F)cccc2F)c2c(cnc(C(F)(F)F)c2Cl)-n2nc(C(=O)N3CC(F)C3)nc21 [Example 7]: 20.2
C[C@@H]1N=C(c2c(F)cccc2F)c2c(cnc(C(F)(F)F)c2Cl)-n2nc(C(=O)NCC3(O)CC3)nc21 [Example 22]: 43.2
C[C@@H]1N=C(c2c(F)cccc2F)c2c(cnc(C(F)(F)F)c2Cl)-n2nc(C(=O)N3CCC3)nc21 [Example 6]: 45.2
C[C@@H]1N=C(c2c(F)cccc2F)c2c(cnc(C(F)(F)F)c2Cl)-n2cc(C(=O)NCCO)nc21 [Example 19]: 21.2

Request: Ki, test system human GABAA α2β2γ1 receptor (Homo sapiens (Human), UniProt P47869+Q8N1C3), entry C[C@H](O)CNC(=O)c1nc2n(n1)-c1cnc(C(F)(F)F)c(Cl)c1C(c1c(F)cccc1F)=N[C@H]2C [Example 14] 46

Hello, I am looking for reported Ki with human GABAA α2β2γ1 receptor (Homo sapiens (Human), UniProt P47869+Q8N1C3) for C[C@@H]1N=C(c2c(F)cccc2F)c2c(cnc(C(F)(F)F)c2Cl)-n2nc(C(=O)N3CC(C)(O)C3)nc21 [Example 10] . Could you help? 14.3

What measured Ki is associated with Cc1nnc2n1-c1cnc(C(F)(F)F)c(Cl)c1C(c1c(F)cccc1Cl)=N[C@H]2C [Example 17] on human GABAA α2β2γ1 receptor (Homo sapiens (Human), UniProt P47869+Q8N1C3)? 22.6

# value lookup — system human GABAA α2β2γ1 receptor (Homo sapiens (Human), UniProt P47869+Q8N1C3), readout Ki, item Cc1cn2c(n1)[C@H](C)N=C(c1c(F)cccc1F)c1c-2cnc(C(F)(F)F)c1Cl [Example 18] 54.5

Test system human GABAA α2β2γ1 receptor (Homo sapiens (Human), UniProt P47869+Q8N1C3); read-out Ki; what value for Cc1ncc2c(c1Cl)C(c1c(F)cccc1F)=N[C@@H](C)c1nnc(C)n1-2 [Example 3] ? 51.6
